molecular target: T1, human MSLN-R2-his protein (human, UniProt Q13421 391-486); assay: ELISA, coated antigen; antibody 0.01 nM
T1 construct: also called human MSLN-R2 protein; hMSLN-R2-his; not shown: His tag
T1 sequence (Q13421 other isoform, or with tags, fused parts or gaps): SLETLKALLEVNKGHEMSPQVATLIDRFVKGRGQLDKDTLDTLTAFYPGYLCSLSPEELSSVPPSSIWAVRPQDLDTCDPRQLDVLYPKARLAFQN
assay readout: OD450 (OD450)
# output: bare number, implied unit OD450

These solved cases illustrate the format of a correct answer.
| binder | OD450 (OD450) |
| --- | --- |
| S009-F3.74.20 (antibody, human IgG1, kappa, V domains shown, Human-murine chimeric antibody, human IgG1/kappa constant regions) VH: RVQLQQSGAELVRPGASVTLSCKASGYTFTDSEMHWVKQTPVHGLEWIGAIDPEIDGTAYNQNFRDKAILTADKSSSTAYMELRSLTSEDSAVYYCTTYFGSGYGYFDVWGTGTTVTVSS VL: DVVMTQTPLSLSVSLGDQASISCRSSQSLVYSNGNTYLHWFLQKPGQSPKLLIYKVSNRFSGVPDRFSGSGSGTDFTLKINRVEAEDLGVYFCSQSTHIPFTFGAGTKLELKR | 0.06 |
| S009-F3.16.1 (antibody, human IgG1, kappa, V domains shown, Human-murine chimeric antibody, human IgG1/kappa constant regions) VH: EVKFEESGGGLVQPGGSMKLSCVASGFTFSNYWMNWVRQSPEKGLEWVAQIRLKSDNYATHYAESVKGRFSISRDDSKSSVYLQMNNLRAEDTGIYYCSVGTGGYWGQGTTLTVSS VL: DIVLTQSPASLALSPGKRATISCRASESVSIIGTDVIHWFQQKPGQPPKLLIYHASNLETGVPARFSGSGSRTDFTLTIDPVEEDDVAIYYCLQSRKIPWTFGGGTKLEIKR | 0.06 |

Sure, the documented OD450 for S009-F3.80.22 (antibody, human IgG1, kappa, V domains shown, Human-murine chimeric antibody, human IgG1/kappa constant regions) VH: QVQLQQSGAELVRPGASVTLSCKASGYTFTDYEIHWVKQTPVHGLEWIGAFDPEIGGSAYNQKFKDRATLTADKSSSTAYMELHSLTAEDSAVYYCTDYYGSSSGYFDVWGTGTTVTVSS VL: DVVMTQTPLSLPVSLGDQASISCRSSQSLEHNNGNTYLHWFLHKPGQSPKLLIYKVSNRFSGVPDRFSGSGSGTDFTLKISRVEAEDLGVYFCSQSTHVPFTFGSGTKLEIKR is 0.07

Sure, the documented OD450 for S009-F3.38.10 (antibody, human IgG1, kappa, V domains shown, Human-murine chimeric antibody, human IgG1/kappa constant regions) VH: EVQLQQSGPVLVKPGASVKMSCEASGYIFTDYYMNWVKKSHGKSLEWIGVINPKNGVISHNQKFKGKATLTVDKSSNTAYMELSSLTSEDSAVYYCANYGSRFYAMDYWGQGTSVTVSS VL: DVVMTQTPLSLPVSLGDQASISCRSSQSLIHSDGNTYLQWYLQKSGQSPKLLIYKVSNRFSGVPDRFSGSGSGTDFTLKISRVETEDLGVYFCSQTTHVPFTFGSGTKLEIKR is 0.11
